Each entry below carries its reported FIG. 30 FACS value (IC17=0, DQN0139bb=100).
biological target: T1, HLA-DQ2.5/omega 1 gliadin peptide complex on Ba/F3 cells (human; wheat); test: FACS
T1 construct: also called Ba/F3-HLA-DQ2.5/omega 1 gliadin peptide
# print the numeric value only

| Binder | Observed value |
| --- | --- |
| DQN0334bb (antibody, human IgG1, kappa, V domains shown, also called DQN0334Hb; DQN0334Lb) VH: QQQLEESGGDLVQPEGSLTLTCKASGFDFSFNAMCWVRQAPGRGPEWIACIYNGNGSTYYASWAKGRFTISKTSSTSVTLQMTSLTAADTATYFCARGGYGLGYAGYGDVNYFNLWGPGTLVTVSS VL: AVVLTQTASPVSAPVGGTVTIKCQASEDIYFLLAWYRQKPGQPPKLLIYGASTLASGVPSRFKGSGSGTEYTLTISDLECADAATYYCQSYWYGDSGPNTFGGGTKVEIKR | 2.8 |

Now for a further binder.
Value of FIG. 30 FACS value (IC17=0, DQN0139bb=100) reported for the binder DQN0271hh (antibody, human IgG1, kappa, V domains shown, also called DQN0271Lh) VH: QSLEESGGGLVKPGASLTLTCKASGFSFSSGYYMCWVRQAPGKGLEWIACIYAGSPDLTYYATWAKGRLTISTTSSTTVTLQLTSLTAADTATYFCARDPGNWGGYDDVRLWGPGTLVTVSS VL: AQVLTQTPSPVSAAVGGTVTISCQSSQSIYSNYLSWFQQKTGQPPKLLIYRASTLASGVPSRFKGSGSGTEFTLTISGVECDDAATYYCQGYYSGAIWTFGGGTKVEIKR is 79.3
